ratio of amounts bound (Z=Y/X) for assorted binders
Biological target: T1, CD3 epsilon homodimer protein (UniProt P07766 23-126)
T1 construct: also called CD3 (CD3 epsilon)
T1 sequence (P07766 23-126): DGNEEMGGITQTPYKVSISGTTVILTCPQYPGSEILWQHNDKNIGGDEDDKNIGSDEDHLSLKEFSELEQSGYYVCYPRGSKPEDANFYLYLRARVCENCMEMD
Assay: SPR Biacore T200, CD3e homodimer on chip, vs unaltered GLS3000 antibody

Previously resolved entries follow.
[[record]]
binder = "GLS3000 V94W (antibody, name in Kabat numbering, V domains shown, one-arm IgG as m2) VH: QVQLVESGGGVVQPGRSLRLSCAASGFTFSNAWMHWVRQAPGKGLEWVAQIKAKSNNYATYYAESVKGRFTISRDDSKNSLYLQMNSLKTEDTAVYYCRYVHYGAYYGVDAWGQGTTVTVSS VL: DIVMTQSPLSLPVTPGEPASISCRSSQSLVHSNRNTYLHWYQQKPGQAPRLLIYKVSNRFSGVPDRFSGSGSGTDFTLKISRVEAEDVGVYYCGQGTQWPYTFGQGTKLEIK"
assay_endpoint = "ratio of amounts bound (Z=Y/X)"
result = 0.58

[[record]]
binder = "GLS3000 V27cD (antibody, name in Kabat numbering, V domains shown, one-arm IgG as m2) VH: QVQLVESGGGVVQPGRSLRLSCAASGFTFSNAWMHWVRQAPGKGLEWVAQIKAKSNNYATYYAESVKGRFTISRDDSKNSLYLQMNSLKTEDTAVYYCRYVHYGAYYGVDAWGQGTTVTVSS VL: DIVMTQSPLSLPVTPGEPASISCRSSQSLDHSNRNTYLHWYQQKPGQAPRLLIYKVSNRFSGVPDRFSGSGSGTDFTLKISRVEAEDVGVYYCGQGTQVPYTFGQGTKLEIK"
assay_endpoint = "ratio of amounts bound (Z=Y/X)"
result = 0.32


Reported ratio of amounts bound (Z=Y/X) for GLS3000 Y32D (antibody, name in Kabat numbering, V domains shown, one-arm IgG as m2) VH: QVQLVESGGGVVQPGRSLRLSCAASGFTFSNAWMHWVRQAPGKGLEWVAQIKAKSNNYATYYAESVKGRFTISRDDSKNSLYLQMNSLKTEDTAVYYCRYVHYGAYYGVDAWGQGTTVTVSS VL: DIVMTQSPLSLPVTPGEPASISCRSSQSLVHSNRNTDLHWYQQKPGQAPRLLIYKVSNRFSGVPDRFSGSGSGTDFTLKISRVEAEDVGVYYCGQGTQVPYTFGQGTKLEIK : what is it?
0.23

Reported ratio of amounts bound (Z=Y/X) for GLS3000 L33V (antibody, name in Kabat numbering, V domains shown, one-arm IgG as m2) VH: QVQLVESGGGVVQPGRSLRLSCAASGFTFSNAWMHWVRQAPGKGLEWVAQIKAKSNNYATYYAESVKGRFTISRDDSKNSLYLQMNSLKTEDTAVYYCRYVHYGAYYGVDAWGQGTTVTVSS VL: DIVMTQSPLSLPVTPGEPASISCRSSQSLVHSNRNTYVHWYQQKPGQAPRLLIYKVSNRFSGVPDRFSGSGSGTDFTLKISRVEAEDVGVYYCGQGTQVPYTFGQGTKLEIK : what is it?
1.05

Reported ratio of amounts bound (Z=Y/X) for GLS3000 T92D (antibody, name in Kabat numbering, V domains shown, one-arm IgG as m2) VH: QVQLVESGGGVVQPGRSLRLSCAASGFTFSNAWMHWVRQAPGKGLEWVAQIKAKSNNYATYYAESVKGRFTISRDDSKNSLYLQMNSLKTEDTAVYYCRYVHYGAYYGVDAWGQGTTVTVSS VL: DIVMTQSPLSLPVTPGEPASISCRSSQSLVHSNRNTYLHWYQQKPGQAPRLLIYKVSNRFSGVPDRFSGSGSGTDFTLKISRVEAEDVGVYYCGQGDQVPYTFGQGTKLEIK : what is it?
0.18

Reported ratio of amounts bound (Z=Y/X) for GLS3000 Q93A (antibody, name in Kabat numbering, V domains shown, one-arm IgG as m2) VH: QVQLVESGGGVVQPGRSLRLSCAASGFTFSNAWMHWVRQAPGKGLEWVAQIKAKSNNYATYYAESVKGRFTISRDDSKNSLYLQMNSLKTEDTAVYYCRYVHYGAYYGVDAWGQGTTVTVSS VL: DIVMTQSPLSLPVTPGEPASISCRSSQSLVHSNRNTYLHWYQQKPGQAPRLLIYKVSNRFSGVPDRFSGSGSGTDFTLKISRVEAEDVGVYYCGQGTAVPYTFGQGTKLEIK : what is it?
0.85

Reported ratio of amounts bound (Z=Y/X) for GLS3000 R24E (antibody, name in Kabat numbering, V domains shown, one-arm IgG as m2) VH: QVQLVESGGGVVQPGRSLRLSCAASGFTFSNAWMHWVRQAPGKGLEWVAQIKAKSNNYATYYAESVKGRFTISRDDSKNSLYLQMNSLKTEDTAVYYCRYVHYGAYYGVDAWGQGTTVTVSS VL: DIVMTQSPLSLPVTPGEPASISCESSQSLVHSNRNTYLHWYQQKPGQAPRLLIYKVSNRFSGVPDRFSGSGSGTDFTLKISRVEAEDVGVYYCGQGTQVPYTFGQGTKLEIK : what is it?
0.83

Reported ratio of amounts bound (Z=Y/X) for GLS3000 S56N (antibody, name in Kabat numbering, V domains shown, one-arm IgG as m2) VH: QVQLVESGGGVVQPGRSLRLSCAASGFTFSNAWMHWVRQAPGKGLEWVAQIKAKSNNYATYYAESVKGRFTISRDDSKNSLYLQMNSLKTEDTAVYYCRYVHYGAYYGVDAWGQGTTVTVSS VL: DIVMTQSPLSLPVTPGEPASISCRSSQSLVHSNRNTYLHWYQQKPGQAPRLLIYKVSNRFNGVPDRFSGSGSGTDFTLKISRVEAEDVGVYYCGQGTQVPYTFGQGTKLEIK : what is it?
0.92

Reported ratio of amounts bound (Z=Y/X) for GLS3000 H34R (antibody, name in Kabat numbering, V domains shown, one-arm IgG as m2) VH: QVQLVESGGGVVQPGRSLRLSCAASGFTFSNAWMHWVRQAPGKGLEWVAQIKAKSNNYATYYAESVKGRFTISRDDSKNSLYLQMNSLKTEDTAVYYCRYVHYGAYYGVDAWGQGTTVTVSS VL: DIVMTQSPLSLPVTPGEPASISCRSSQSLVHSNRNTYLRWYQQKPGQAPRLLIYKVSNRFSGVPDRFSGSGSGTDFTLKISRVEAEDVGVYYCGQGTQVPYTFGQGTKLEIK : what is it?
0.2

Reported ratio of amounts bound (Z=Y/X) for GLS3000 L33F (antibody, name in Kabat numbering, V domains shown, one-arm IgG as m2) VH: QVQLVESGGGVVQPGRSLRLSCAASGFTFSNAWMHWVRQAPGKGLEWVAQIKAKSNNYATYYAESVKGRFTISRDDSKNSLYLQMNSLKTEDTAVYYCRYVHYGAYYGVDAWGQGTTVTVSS VL: DIVMTQSPLSLPVTPGEPASISCRSSQSLVHSNRNTYFHWYQQKPGQAPRLLIYKVSNRFSGVPDRFSGSGSGTDFTLKISRVEAEDVGVYYCGQGTQVPYTFGQGTKLEIK : what is it?
0.78
